- protocol.summary: In vitro stability experiment of cell-penetrating peptides in human plasma
- test.conditions: plasma
Square brackets hold non-standard residues; d marks the D form. Peptide text beside a SMILES is read from it.
parameter: half-life at 10 μM (h)
The reply should be a number in h, with the unit left off.

Report measured half-life at 10 μM; entry is N=C(N)NCCC[C@H](NC(=O)[C@@H](CCCNC(=N)N)NC(=O)[C@H](CCC(N)=O)NC(=O)[C@@H](CCCNC(=N)N)NC(=O)[C@H](CCCNC(=N)N)NC(=O)[C@H](CCCCN)NC(=O)[C@H](CCCCN)NC(=O)[C@@H](CCCNC(=N)N)NC(=O)CNC(=O)[C@@H](N)Cc1ccc(O)cc1)C(=O)O [TAT-3] (H-YG[dR]KKR[dR]Q[dR]R-OH) 21.7
